# Test system: brown skin surface lipids of the rats
# experiment: Rat skin browning test for antiseborrheic (sebosuppressive) effect, visual assessment of shaved back
# Type: in vivo, male Wistar rats
# test_conditions: 0.5% in alcohol/acetone (1:1), topical; points difference / points of control group
# Description: The antiseborrheic effect was closely studied using the animal tests described in the following: The test animals were male Wistar rats having a body weight of 220 to 230 g. The degree of browning on the shaved back of the rats was visually assessed. Browning is produced by the brown skin surface lipids of the rats. […] At the same time, only comparatively very small quantities of lipids can be extracted from shaved hairs. […]
The label met is reserved for Sebum reduction strictly under 70%; not met covers values equal to or above it.

Please let me know if CCCCCCCCCCCCc1ccc(CO)cc1 [C, 4-dodecylbenzyl alcohol] shows Sebum reduction below 70%.
met

Please let me know if CCCCCCCCc1ccc(CO)cc1 [A, 4-octylbenzyl alcohol] shows Sebum reduction below 70%.
not met

Please let me know if CCCCCCCCCCc1ccc(CO)cc1 [B, 4-decylbenzyl alcohol] shows Sebum reduction below 70%.
not met

Please let me know if CCCCCCCCCCOCc1ccc(CO)cc1 [D, 4-decyloxymethylbenzyl alcohol] shows Sebum reduction below 70%.
not met
